Biological target: full-length human HuR protein (Homo sapiens)
Construct: full-length human HuR protein was produced by the KU COBRE-PSF Protein Purification Group
Experiment: FP assay of HuR-Msi1 ARE binding inhibition
Settings: HuR-Msi1 ARE interaction; read-out: HuR Ki via FP assay
Experimental: A fluorescence polarization (FP)-based binding assay was utilized to assess the inhibition of HuR protein interaction with the ARE site of Msi1 mRNA (“HuR-Msi1^ARE”) by compounds of interest. […] With the FP assay of HuR-Msi1ARE binding, the inhibition of the HuR-Msi1ARE interaction by various compounds of the present technology was assessed. […]
Property label: Ki (µM)
Reply numerically in µM, unit not repeated.

Worked examples follow.
[[record]]
compound = "CN(C)c1ccc(C(=O)Nc2ccc3sc(CCC(=O)NO)cc3c2)cc1"
measured_value = 2.88

[[record]]
compound = "CC(C)(C)c1ccc(C(=O)Nc2ccc3sc(/C=C/C(N)=O)cc3c2)cc1 [KH-19C]"
measured_value = 0.6

[[record]]
compound = "O=C(/C=C/c1cc2cc(NC(=O)c3ccc(C(F)(F)F)cc3)ccc2s1)NO"
measured_value = 0.51


The compound listed as O=C(O)/C=C/c1cc2cc(NC(=O)C3CCCCC3)ccc2s1 [KH-46A] has a reported Ki of 4.27

The compound listed as CN(C)c1ccc(C(=O)Nc2ccc3sc(C(=O)NO)cc3c2)cc1 has a reported Ki of 0.61

The compound listed as CN(C)c1ccc(C(=O)Nc2ccc3[nH]c(C(=O)NO)cc3c2)cc1 has a reported Ki of 3.31

====

biological target: Musashi 2 (Msi2) (Homo sapiens); experiment: Msi2 FP assay; assay type: binding; conditions: cell without (RRM1) mark, read-out: Msi2 (Ki)
Sequence (Q96DH6 whole entry, species assumed): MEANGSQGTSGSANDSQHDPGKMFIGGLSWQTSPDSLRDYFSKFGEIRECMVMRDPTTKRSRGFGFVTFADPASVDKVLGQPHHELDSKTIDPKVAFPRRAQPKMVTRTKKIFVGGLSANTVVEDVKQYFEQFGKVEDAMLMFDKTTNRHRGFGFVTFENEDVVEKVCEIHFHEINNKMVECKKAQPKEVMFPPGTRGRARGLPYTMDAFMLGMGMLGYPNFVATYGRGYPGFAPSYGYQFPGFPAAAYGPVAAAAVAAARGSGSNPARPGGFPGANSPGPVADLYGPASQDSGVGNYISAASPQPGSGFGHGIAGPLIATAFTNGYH
Property label: Ki

[[record]]
molecule = "CC(C)c1ccc(C(=O)Nc2ccc3sc(CCC(=O)NN)cc3c2)cc1 [KH-37E]"
property_label = "Ki"
measured_value = "> 20 µM"


The molecule listed as CC(C)(C)c1ccc(C(=O)Nc2ccc3sc(CCC(=O)NO)cc3c2)cc1 has a reported Ki of > 20 µM

====

biological target: full-length human HuR protein (Homo sapiens, UniProt Q15717); construct: full-length human HuR protein was produced by the KU COBRE-PSF Protein Purification Group; assay: FP assay of HuR-Msi1 ARE binding inhibition; details: HuR-Msi1 ARE interaction; read-out: HuR Ki via FP assay
Sequence (Q15717 whole entry): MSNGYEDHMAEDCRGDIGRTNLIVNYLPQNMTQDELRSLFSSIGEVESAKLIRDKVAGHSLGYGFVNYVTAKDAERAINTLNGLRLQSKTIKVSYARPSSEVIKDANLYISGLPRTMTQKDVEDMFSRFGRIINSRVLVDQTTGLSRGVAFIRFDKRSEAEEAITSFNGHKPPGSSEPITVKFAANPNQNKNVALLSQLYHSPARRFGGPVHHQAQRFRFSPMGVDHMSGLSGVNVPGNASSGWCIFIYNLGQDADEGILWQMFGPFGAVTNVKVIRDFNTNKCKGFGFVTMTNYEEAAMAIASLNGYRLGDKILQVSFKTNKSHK
Property label: Ki (µM)
Reply numerically in µM, unit not repeated.

Worked examples follow.
[[record]]
molecule = "CC(C)(C)c1ccc(C(=O)Nc2ccc3[nH]c(C(=O)O)cc3c2)cc1 [KH-39A]"
system_tested = "full-length human HuR protein (Homo sapiens, UniProt Q15717)"
property_label = "Ki"
measured_value = 12.5

[[record]]
molecule = "CC(C)(C)c1cccc(C(=O)Nc2ccc3sc(/C=C/C(=O)NO)cc3c2)c1 [KH-31]"
system_tested = "full-length human HuR protein (Homo sapiens, UniProt Q15717)"
property_label = "Ki"
measured_value = 0.47

[[record]]
molecule = "CC(C)(C)c1cccc(C(=O)Nc2ccc3sc(CCC(=O)NN)cc3c2)c1 [KH-30E]"
system_tested = "full-length human HuR protein (Homo sapiens, UniProt Q15717)"
property_label = "Ki"
measured_value = 4.19

[[record]]
molecule = "CC(C)(C)c1ccc(C(=O)Nc2ccc3[nH]c(C(=O)NN)cc3c2)cc1 [KH-39E]"
system_tested = "full-length human HuR protein (Homo sapiens, UniProt Q15717)"
property_label = "Ki"
measured_value = 1.67

[[record]]
molecule = "CC(C)(C)c1ccc(C(=O)Nc2ccc3sc(/C=C/C(=O)O)cc3c2)cc1 [KH-19A]"
system_tested = "full-length human HuR protein (Homo sapiens, UniProt Q15717)"
property_label = "Ki"
measured_value = 0.97


The molecule listed as CC(C)(C)c1ccc(C(=O)Nc2ccc3[nH]c(/C=C/C(=O)NO)cc3c2)cc1 [KH-48] has a reported Ki of 0.34

====

Reported pKi values, Msi1 (Homo sapiens, UniProt O43347).
pKi: −log10 of the molar value.

Worked examples follow.
[[record]]
molecule = "CC(C)(C)C(=O)Nc1ccc2sc(/C=C/C(=O)O)cc2c1 [KH-20A]"
measured_value = "< 4.70"

[[record]]
molecule = "CN(C)c1ccc(C(=O)Nc2ccc3sc(/C=C/C(=O)O)cc3c2)cc1 [KH-36A]"
measured_value = 6.66

[[record]]
molecule = "CC(C)(C)c1cccc(C(=O)Nc2ccc3sc(CCC(=O)NO)cc3c2)c1"
measured_value = "< 4.70"

[[record]]
molecule = "O=C(CCc1cc2cc(NC(=O)c3ccc(C(F)(F)F)cc3)ccc2s1)NO"
measured_value = "< 4.70"

[[record]]
molecule = "CC(C)(C)c1ccc(C(=O)Nc2ccc3sc(/C=C/C(=O)O)cc3c2)cc1 [KH-19A]"
measured_value = 5.65


Observed pKi, Msi1 (Homo sapiens, UniProt O43347), CC(C)(C)c1ccc(C(=O)Nc2ccc3sc(CCC(=O)NO)cc3c2)cc1 : < 4.70

Observed pKi, Msi1 (Homo sapiens, UniProt O43347), CC(C)(C)c1ccc(C(=O)Nc2ccc3sc(CCC(=O)NN)cc3c2)cc1 [KH-22E] : < 4.70

Observed pKi, Msi1 (Homo sapiens, UniProt O43347), O=C(O)/C=C/c1cc2cc(NC(=O)c3ccc(C(F)(F)F)cc3)ccc2s1 [KH-32A] : 5.36

Observed pKi, Msi1 (Homo sapiens, UniProt O43347), CC(C)(C)c1ccc(C(=O)Nc2ccc3sc(CCC(=O)O)cc3c2)cc1 [KH-22A] : < 4.70

====

tested on: pancreatic cancer cell line MIAPaCa-2; experiment: Cytotoxicity assay (WST-8), MIAPaCa-2; type: cell-based; settings: Homo sapiens, MIA PaCa-2, 96 h incubation
Property label: pIC50
Hey, just a heads up that pIC50 is the negative log base 10 of the concentration in molar.

Worked examples follow.
[[record]]
compound = "CC(C)(C)c1ccc(C(=O)Nc2ccc3sc(/C=C/C(=O)O)cc3c2)cc1 [KH-19A]"
measured_value = 4.25

[[record]]
compound = "CC(C)(C)c1ccc(C(=O)Nc2ccc3sc(/C=C/C(=O)NO)cc3c2)cc1"
measured_value = 5.63


Then this compound:
Observed pIC50, pancreatic cancer cell line MIAPaCa-2, CC(C)(C)C(=O)Nc1ccc2sc(/C=C/C(=O)NO)cc2c1 : 5.40

====

system: triple-negative breast cancer cell line MDA-MB-231; assay: Cytotoxicity assay (WST-8), MDA-MB-231; assay type: cell-based; conditions: Homo sapiens, 96 h incubation
Where a name gives a salt, the structure may show the parent alone.
Property label: IC50 (µM)
Reply numerically in µM, unit not repeated.

[[record]]
compound = "NNC(=O)CCc1cc2cc(NC(=O)c3ccc(C(F)(F)F)cc3)ccc2s1 [KH-29E]"
measured_value = 71.2

[[record]]
compound = "CC(C)(C)c1ccc(C(=O)Nc2ccc3sc(/C=C/C(=O)NO)cc3c2)cc1"
measured_value = 1.33

[[record]]
compound = "CC(C)(C)c1ccc(C(=O)Nc2ccc3sc(C(=O)NO)cc3c2)cc1"
measured_value = 3.71

[[record]]
compound = "O=C(/C=C/c1cc2cc(NC(=O)c3ccc(C(F)(F)F)cc3)ccc2s1)NO"
measured_value = 2.62

[[record]]
compound = "CC(C)(C)c1ccc(C(=O)Nc2ccc3sc(CCC(=O)NO)cc3c2)cc1"
measured_value = 3.48

[[record]]
compound = "CC(C)(C)c1ccc(C(=O)Nc2ccc3sc(CCC(=O)O)cc3c2)cc1 [KH-22A]"
measured_value = 19.8

[[record]]
compound = "CN(C)c1ccc(C(=O)Nc2ccc3sc(CCC(=O)NN)cc3c2)cc1 [KH-38E]"
measured_value = 57.6

[[record]]
compound = "CC(C)(C)c1ccc(C(=O)Nc2ccc3sc(C(=O)O)cc3c2)cc1 [KH-43A]"
measured_value = 90.5


The compound listed as O=C(/C=C/c1cc2cc(NC(=O)C3CCCCC3)ccc2s1)NO has a reported IC50 of 3.5

The compound listed as O=C(CCc1cc2cc(NC(=O)c3ccc(C(F)(F)F)cc3)ccc2s1)NO has a reported IC50 of 12.4

The compound listed as CC(C)(C)c1ccc(C(=O)Nc2ccc3sc(/C=C/C(=O)O)cc3c2)cc1 [KH-19A] has a reported IC50 of 72.1

The compound listed as O=C(Nc1ccc2sc(C(=O)NO)cc2c1)c1ccccn1 has a reported IC50 of 4.43

The compound listed as O=C(Nc1ccc2[nH]c(C(=O)NO)cc2c1)c1ccccn1 [KH-56, hydrochloride] has a reported IC50 of 75.3

The compound listed as CN(C)c1ccc(C(=O)Nc2ccc3sc(C(=O)NO)cc3c2)cc1 has a reported IC50 of 1.31

The compound listed as CC(C)(C)c1ccc(C(=O)Nc2ccc3sc(CCC(N)=O)cc3c2)cc1 [KH-22C] has a reported IC50 of 2.87

The compound listed as CC(C)(C)c1cccc(C(=O)Nc2ccc3sc(/C=C/C(=O)NO)cc3c2)c1 has a reported IC50 of 9.74

The compound listed as O=C(/C=C/c1cc2cc(NC(=O)c3ccccn3)ccc2s1)NO [KH-47, hydrochloride] has a reported IC50 of 3.11

The compound listed as O=C(O)/C=C/c1cc2cc(NC(=O)c3ccc(S(F)(F)(F)(F)F)cc3)ccc2s1 [KH-33A] has a reported IC50 of 50.1

The compound listed as O=C(O)/C=C/c1cc2cc(NC(=O)c3ccccn3)ccc2s1 [KH-47A, hydrochloride] has a reported IC50 of 18.2

The compound listed as CN(C)c1ccc(C(=O)Nc2ccc3[nH]c(C(=O)NO)cc3c2)cc1 has a reported IC50 of 11.3

The compound listed as CN(C)c1ccc(C(=O)Nc2ccc3[nH]c(C(=O)O)cc3c2)cc1 [KH-57A] has a reported IC50 of 100

The compound listed as CN(C)c1ccc(C(=O)Nc2ccc3sc(/C=C/C(=O)NO)cc3c2)cc1 has a reported IC50 of 4.02

The compound listed as O=C(O)CCc1cc2cc(NC(=O)c3ccc(S(F)(F)(F)(F)F)cc3)ccc2s1 [KH-34A] has a reported IC50 of 48

The compound listed as O=C(CCc1cc2cc(NC(=O)c3ccc(S(F)(F)(F)(F)F)cc3)ccc2s1)NO has a reported IC50 of 3.97

The compound listed as CC(C)(C)c1cccc(C(=O)Nc2ccc3sc(CCC(=O)NN)cc3c2)c1 [KH-30E] has a reported IC50 of 22.7

The compound listed as CC(C)(C)c1ccc(C(=O)Nc2ccc3sc(/C=C/C(=O)NN)cc3c2)cc1 [KH-19E] has a reported IC50 of 28.4

The compound listed as CC(C)(C)c1ccc(C(=O)Nc2ccc3sc(/C=C/C(N)=O)cc3c2)cc1 [KH-19C] has a reported IC50 of 8.68

Attribution: patent US20220213052A1
